molecular target: T1, cTnI quality control product recombinant protein (human, UniProt P19429 2-210, limits assumed); assay: AMC sensor, antibody immobilised, cTnI in solution
T1 construct: treated as the same molecule; also called cTnI antigen; cardiac troponin I
T1 sequence (P19429 2-210 limits assumed): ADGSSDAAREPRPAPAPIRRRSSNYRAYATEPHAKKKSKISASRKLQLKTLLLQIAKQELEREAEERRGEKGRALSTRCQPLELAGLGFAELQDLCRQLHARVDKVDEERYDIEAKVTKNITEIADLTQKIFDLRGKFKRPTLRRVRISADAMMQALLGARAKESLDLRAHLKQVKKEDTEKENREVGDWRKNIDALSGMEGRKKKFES
Value Type: koff (s⁻¹)

{"Binder": "Mutation 1-52 (antibody, V domains shown, Built as m8) VH: EVQLQQSGPELVKPGASVKMSCKASGYTFTIYVVHWVKQKPGQGLEWIGYINPYLDGTKYNEKFKGKATLTVDKSSSTAFMELSSLTSEDSAVYYCARSGYGNYGLAWLAYWGQGTLVTVSA VL: QAVVIQESALTTSPGETVTLTCRSSTGAATTSQYANWVQEKPDHLFTGLIGGSNNRAPGVPARFSGSLIGDKAALTITGAQTEDEAIYFCALVYSNNWVFGGGTKLTVLG", "Value Type": "koff", "Quantitative Readout": 0.000492}
{"Binder": "Mutation 1-23 (antibody, V domains shown, Built as m8) VH: EVQLQQSGPELVKPGASVKMSCKASGYTFTLYVIHWVKQKPGQGLEWIGYIYPYIDGTKYNEKFKGKATLTVDKSSSTAFMELSSLTSEDSAVYYCARSGYGGYGLAWLAYWGQGTLVTVSA VL: QAVVIQESALTTSPGETVTLTCRSSTGAVTTSNYANWVQEKPDHLFTGLIGGSQNRAPGVPARFSGSLIGDKAALTITGAQTEDEAIYFCALVYSNHWVFGGGTKLTVLG", "Value Type": "koff", "Quantitative Readout": 0.000353}
{"Binder": "Mutation 1-54 (antibody, V domains shown, Built as m8) VH: EVQLQQSGPELVKPGASVKMSCKASGYTFTIYVVHWVKQKPGQGLEWIGYINPYLDGTKYNEKFKGKATLTVDKSSSTAFMELSSLTSEDSAVYYCARSGYGQYGLAWLAYWGQGTLVTVSA VL: QAVVIQESALTTSPGETVTLTCRSSTGAATTSNYANWVQEKPDHLFTGLIGGSNNRAPGVPARFSGSLIGDKAALTITGAQTEDEAIYFCALVYSNQWVFGGGTKLTVLG", "Value Type": "koff", "Quantitative Readout": 0.000321}
{"Binder": "Mutation 1-29 (antibody, V domains shown, Built as m8) VH: EVQLQQSGPELVKPGASVKMSCKASGYTFTLYVIHWVKQKPGQGLEWIGYIQPYIDGTKYNEKFKGKATLTVDKSSSTAFMELSSLTSEDSAVYYCARSGYGGYGLAWLAYWGQGTLVTVSA VL: QAVVIQESALTTSPGETVTLTCRSSTGAATTSQYANWVQEKPDHLFTGLIGGSQNRAPGVPARFSGSLIGDKAALTITGAQTEDEAIYFCALVYSNNWVFGGGTKLTVLG", "Value Type": "koff", "Quantitative Readout": 0.000207}
{"Binder": "Mutation 1-36 (antibody, V domains shown, Built as m8; CDR-VL1 cell printed 'VQ', read as V/Q) VH: EVQLQQSGPELVKPGASVKMSCKASGYTFTIYVVHWVKQKPGQGLEWIGYINPYIDGTKYNEKFKGKATLTVDKSSSTAFMELSSLTSEDSAVYYCARSGYGQYGLAWLAYWGQGTLVTVSA VL: QAVVIQESALTTSPGETVTLTCRSSTGAVTTSQYANWVQEKPDHLFTGLIGGSNNRAPGVPARFSGSLIGDKAALTITGAQTEDEAIYFCALVYSNHWVFGGGTKLTVLG", "Value Type": "koff", "Quantitative Readout": 0.000118}

Numbers sourced from patent US20220033484A1.
